Each entry below lists one item and its recorded inhibition value.
- experimental target: Glucose transporter (Leishmania mexicana) (UniProt O61059)
- protocol description: ST_JUDE_LEISH: Cytotoxicity at 2uM final concentration against transgenic Leishmania Mexicana promastigotes LmGT2 that are glucose transport deficient and complemented with the L. Mexicana glucose transporter 2. Activity is measured by DNA content using SYBR green in vitro
- Type: functional
Numbers only here, please. The scale is %.

line_notation=O=c1ccc2ccc(F)cc2n1CCN1CCC(NCc2ccc(-c3ccccn3)s2)CC1 experimental_readout=inhibition recorded_value=-0.91

Summary: Oc1ccc(-c2nc3c4cc(I)ccc4c4ccc(I)cc4c3[nH]2)cc1 , Glucose transporter (Leishmania mexicana) (UniProt O61059), inhibition = -2.11

Summary: COc1cccc(CNC(=O)[C@H]2CNCCN2C(=O)CCCc2ccccc2)c1 , Glucose transporter (Leishmania mexicana) (UniProt O61059), inhibition = 5.01

====

Each entry below lists one item and its recorded inhibition value.
- experimental target: Solute carrier family 2, facilitated glucose transporter member 1 (Homo sapiens)
- protocol description: ST_JUDE_LEISH: Cytotoxicity at 2uM final concentration against transgenic Leishmania Mexicana promastigotes LmGLUT1 that are glucose transport deficient and complemented with the human glucose transporter GLUT1. Activity is measured by DNA content using SYBR green in vitro
- Assay type: functional
Numbers only here, please. The scale is %.

compound=O=C(Nc1cccc(Cl)c1)c1cc2ccccc2cc1O scale_unit=% recorded_value=2.74
compound="CC1(C(=O)Nc2ccc([N+](=O)[O-])cc2O)CC2c3ccccc3C1c1ccccc12 (stereo unspecified)" scale_unit=% recorded_value=2.18
compound=CCCCCCn1c(Sc2ccc(C#N)c([N+](=O)[O-])c2)nnc1-c1cc(OC)cc(OC)c1 scale_unit=% recorded_value=5.8
compound=CC(=O)Nc1ccc(CN2CCc3ccc(NS(=O)(=O)c4cccc(OCc5ccc(Cl)cc5)c4)cc3CC2)s1 scale_unit=% recorded_value=2.65
compound=Cc1cccc2nc(-c3ccc(-c4ccc(NC(=O)NCc5cccc(F)c5)cc4)s3)[nH]c12 scale_unit=% recorded_value=7.99

Here's the next entry for you.
Reported inhibition of Cc1cc(N2CC=CCC2)nc(NC(=N)Nc2ccc(Cl)cc2)n1 : 6.87

====

- experimental target: Glucose transporter (Leishmania mexicana)
- protocol description: ST_JUDE_LEISH: Cytotoxicity at 2uM final concentration against transgenic Leishmania Mexicana promastigotes LmGT2 that are glucose transport deficient and complemented with the L. Mexicana glucose transporter 2. Activity is measured by DNA content using SYBR green in vitro
- Type: functional
Each entry below lists one item and its recorded inhibition value.
Numbers only here, please. The scale is %.

compound="C=CCCCNCC(NCCCNc1cc(=O)c2ccccc2[nH]1)c1cc(Br)cc(Br)c1 (centres undefined)" recorded_value=0.77
compound="CC1CN(c2ccc3[nH]cc(Sc4ccc(-c5cccs5)cc4)c3c2)CC(C)N1 (centres undefined)" recorded_value=-1.36
compound=N#Cc1cccc(CN(Cc2ccc(Cl)c(Cl)c2)S(=O)(=O)c2cccc([N+](=O)[O-])c2)c1 recorded_value=4.05
compound=CCc1ccc(-c2cnc(N)c3cc(-c4ccnc(N)n4)ccc23)cc1 recorded_value=-1.72

Reported inhibition of CCOc1cc(CC)ccc1C1CCN(CCN2CCC(CNC(=O)c3ccc(-c4ccc(C#N)cc4)cc3)CC2)CC1 : 13.1

Reported inhibition of CCN(CCCN1CCCCC1)c1cc(C)nc(Nc2cccc(C(F)(F)F)c2C)n1 : 0.96

Reported inhibition of Cn1ccc(C(=O)Nc2ccc3c(c2)CN(Cc2ccc(N4CCCC4)o2)CCC3)n1 : -0.65

Reported inhibition of CCOC(=O)[C@H](Cc1cccc2ccccc12)NC(=O)[C@H](CCC(=O)OC(C)(C)C)NC(=O)c1ccc(N(C)Cc2cnc3nc(N)nc(N)c3n2)cc1 : 3.56

Reported inhibition of CC(C)(C)OC(=O)NCc1ccc(Nc2nnc(-c3cccc(OCC(=O)NCc4cc(C(F)(F)F)cc(C(F)(F)F)c4)c3)o2)cc1 : 1.12

====

Each entry below lists one item and its recorded inhibition value.
- experimental target: Hexose transporter 1 (Plasmodium falciparum)
- protocol description: ST_JUDE_LEISH: Cytotoxicity at 2uM final concentration against transgenic Leishmania Mexicana promastigotes LmPfHT that are glucose transport deficient and complemented with the Plasmodium falciparum hexose transporter. Activity is measured by DNA content using SYBR green in vitro
- Assay type: functional
Numbers only here, please. The scale is %.

Known inhibition results, listed for orientation:
compound="CC(CN(C)C)Oc1ccc2nc(-c3cccc(OCc4ccccc4)c3)[nH]c2c1C#N (stereo not given)" experimental_target="Hexose transporter 1 (Plasmodium falciparum)" recorded_value=0.94
compound="CCC(=O)Nc1ccc(C(O)CN2CCC3(C=Cc4ccccc4O3)CC2)cc1 (stereo not given)" experimental_target="Hexose transporter 1 (Plasmodium falciparum)" recorded_value=2.65
compound="COc1ccc(OC)c(NC(=O)C2c3ccccc3C(=O)N(CC(C)C)C2c2cccs2)c1 (stereo not given)" experimental_target="Hexose transporter 1 (Plasmodium falciparum)" recorded_value=-2.35
compound=O=C(Nc1ccncc1)c1cc(C(=O)Nc2ccncc2)cc([N+](=O)[O-])c1 experimental_target="Hexose transporter 1 (Plasmodium falciparum)" recorded_value=-3.19

Here's the next entry for you.
Reported inhibition of CC1CCC(NC(=O)c2nn(-c3ccc(Cl)cc3)c(=O)c3ccccc23)CC1 (stereo not given) : 1.39

====

- experimental target: Hexose transporter 1 (Plasmodium falciparum)
- protocol description: ST_JUDE_LEISH: Cytotoxicity at 2uM final concentration against transgenic Leishmania Mexicana promastigotes LmPfHT that are glucose transport deficient and complemented with the Plasmodium falciparum hexose transporter. Activity is measured by DNA content using SYBR green in vitro
- Assay type: functional
experimental readout: inhibition
Report the figure along with its unit, number first.

compound=CCn1ccc2c(N3CCCC3=O)cc(C(=O)N[C@@H](Cc3ccccc3)[C@H](O)CNCc3cccc(OC)c3)cc21 recorded_value=1.98%
compound=CCn1cc(-c2nc(-c3cc(OC)cc(OC)c3)no2)c(=O)c2ccccc21 recorded_value=6.39%
compound=FC(F)(F)c1ccc2[nH]ccc(=NN=Cc3ccccc3)c2c1 recorded_value=-0.56%

Reported inhibition of O=C(c1ccc([N+](=O)[O-])o1)N1CCN(c2ccccc2)CC1 : 1.95%

Reported inhibition of COc1ccccc1N1CCN(CCCCNC(=O)c2ccc(NC(=O)c3ccc(C(F)(F)F)cc3)cc2)CC1 : -0.29%

Reported inhibition of N=C(N)Nc1nc(-c2cccc(NC(=O)NCc3ccc(OC(F)(F)F)cc3)c2)cs1 : 0.95%

Reported inhibition of O=C(Nc1ccc(OC2CCN(Cc3ccsc3)C2)c(Cl)c1)c1ccco1 (stereo not given) : 1.35%

Reported inhibition of Cc1ccc(C2=NNC3(S2)C(=O)Nc2ccc(C)cc23)cc1 (stereo not given) : 2.71%

====

Each entry below lists one item and its recorded inhibition value.
- experimental target: Glucose transporter (Leishmania mexicana) (UniProt O61059)
- protocol description: ST_JUDE_LEISH: Cytotoxicity at 2uM final concentration against transgenic Leishmania Mexicana promastigotes LmGT2 that are glucose transport deficient and complemented with the L. Mexicana glucose transporter 2. Activity is measured by DNA content using SYBR green in vitro
- Format: functional
Numbers only here, please. The scale is %.

Known inhibition results, listed for orientation:
molecule=c1ccc2[nH]c(-c3ccc(-c4ccc(CNCCc5ccncc5)cc4)s3)nc2c1 recorded_value=2.3
molecule=O=[N+]([O-])c1cccc(CNC2CCN(Cc3ccc(C(F)(F)F)cc3)CC2)c1 recorded_value=3.71
molecule=CN1CCN(CCCNc2ncc3c(-c4ccc(NC(=O)Nc5cc(C(F)(F)F)ccc5F)c(F)c4)nn(C)c3n2)CC1 recorded_value=7.86
molecule="COc1ccc(S(=O)(=O)NC2CCN(CCNC(=O)Nc3cc(C)nc4ccccc34)C2)cc1 (stereo not given)" recorded_value=-0.75

Here's the next entry for you.
Reported inhibition of CCOc1ccc(N2C(N)=NC(N)=NC2(C)C)cc1 : 4.06

====

- experimental target: Glucose transporter (Leishmania mexicana)
- protocol description: ST_JUDE_LEISH: Cytotoxicity at 2uM final concentration against transgenic Leishmania Mexicana promastigotes LmGT2 that are glucose transport deficient and complemented with the L. Mexicana glucose transporter 2. Activity is measured by DNA content using SYBR green in vitro
- Format: functional
experimental readout: inhibition (%)
Numbers only here, please. The scale is %.

Known inhibition results, listed for orientation:
compound=c1ccc2c(c1)CN(Cc1cc3ccccc3[nH]1)CC1(CCN(Cc3c[nH]c4cnccc34)CC1)O2 experimental_readout=inhibition scale_unit=% recorded_value=-0.44
compound="Cc1ccc(CCOCCCCCNCC(O)c2cc(Cl)c(N)c(Cl)c2)cc1 (stereo not drawn)" experimental_readout=inhibition scale_unit=% recorded_value=0.95
compound=Fc1cccc(COc2ccc(Nc3ncnc4sc(C#C[C@H]5CCCN5)cc34)cc2F)c1 experimental_readout=inhibition scale_unit=% recorded_value=0.52

Reported inhibition of CCN(CCCN1CCCCC1)c1cc(C)nc(Nc2ccc(C)c(C)c2)n1 : 4.45

Reported inhibition of C=C1C(C(=O)OCC)=CN(CC)c2cc(O[C@H]3CCN(C(=O)OC(C)(C)C)C3)ccc21 : -2.32

Reported inhibition of Cc1ccc(-c2nnc3c4ccccc4c(C)nn23)cc1S(=O)(=O)N1CCN(CCO)CC1 : -0.93

Reported inhibition of CC(C)(CNCc1ccc(F)c(F)c1)c1nc(-c2ccnc(N)n2)c(-c2ccc(Cl)c(O)c2)[nH]1 : 2.56

Reported inhibition of CC(C)COc1ccc(Cl)cc1Cc1ccc(-c2nc3ccc(C(F)(F)F)cc3[nH]2)o1 : 2.13

Reported inhibition of CC[C@H](N/C(=N\c1cccc(Cl)c1Cl)Nc1ccc(C#N)cc1O)c1ccccc1 : 6.46
